experiment description: in vitro
Assay type: cell-based, African green monkey
experimental setup: monkey, vero cells
measured quantity: CC50

Solved entries (count: 2):
C=Cc1cn([C@@H]2O[C@H](CO)[C@H]2CO)c(=O)[nH]c1=O ... > 1000 µg/mL
CCc1cn([C@@H]2O[C@H](CO)[C@H]2CO)c(=O)[nH]c1=O ... 350 µg/mL

Give CC50 for the following compound: O=c1[nH]c(=O)n([C@@H]2O[C@H](CO)[C@H]2CO)cc1C=CBr
> 1000 µg/mL

###

experiment description: MTT drug cytotoxicity assay in MRC5 cells
Type: cell-based
experimental setup: human, 32 μg/ml, read-out: MTT assay Percent of control
measured quantity: viability

Give viability for the following compound: O=c1ccn([C@@H]2O[C@H](CO)[C@H]2CO)c(=O)[nH]1 [Example 23]
100%
